Values from patent EP4656642A1

Each item that follows carries a reported Degradation rate (%) of ERα in MCF-7 cells.
- assayed_system: ERα (Homo sapiens, UniProt P03372)
- measurement_notes: Degradation of ERα in MCF-7 cells (immunoblotting, 4 h)
- Type: cell-based
- condition_notes: 10nM compound
quantity_kind: Degradation rate (%) of ERα in MCF-7 cells

INSERT INTO assay_data (compound, reading) VALUES
  ('O=C1CCC(N2Cc3c(ccc4c3OCC43CCN(CCN4CCN(c5ccc([C@@H]6c7ccc(O)cc7CC[C@@H]6c6ccccc6)cc5)CC4)CC3)C2=O)C(=O)N1 (some centres unmarked)', -14),
  ('O=C1CCC(N2Cc3c(ccc4c3OCC43CCN(c4ccc(C(=O)N5CCN(c6ccc([C@@H]7c8ccc(O)cc8CC[C@@H]7c7ccccc7)cc6)CC5)nc4)CC3)C2=O)C(=O)N1 (some centres unmarked)', 49),
  ('O=C1CCC(N2Cc3cc4c(cc3C2=O)C2(CCN(C3CCC5(CC3)CCN(c3ccc([C@@H]6c7ccc(O)cc7CC[C@@H]6c6ccccc6)cc3)CC5)CC2)CO4)C(=O)N1 (some centres unmarked)', 4),
  ('O=C1CCC(N2Cc3c(ccc4c3OCC43CCN(CCN4CCC5(CC4)CCN(c4ccc([C@@H]6c7ccc(O)cc7CC[C@@H]6c6ccccc6)cc4)CC5)CC3)C2=O)C(=O)N1 (some centres unmarked)', 73),
  ('O=C1CCC(N2Cc3c(ccc4c3OCC43CCN(C(=O)CN4CCC(Oc5ccc([C@@H]6c7ccc(O)cc7CC[C@@H]6c6ccccc6)cc5)CC4)CC3)C2=O)C(=O)N1 (some centres unmarked)', 35);

###

- assayed_system: ERα (Homo sapiens)
- Sequence (P03372 1-595): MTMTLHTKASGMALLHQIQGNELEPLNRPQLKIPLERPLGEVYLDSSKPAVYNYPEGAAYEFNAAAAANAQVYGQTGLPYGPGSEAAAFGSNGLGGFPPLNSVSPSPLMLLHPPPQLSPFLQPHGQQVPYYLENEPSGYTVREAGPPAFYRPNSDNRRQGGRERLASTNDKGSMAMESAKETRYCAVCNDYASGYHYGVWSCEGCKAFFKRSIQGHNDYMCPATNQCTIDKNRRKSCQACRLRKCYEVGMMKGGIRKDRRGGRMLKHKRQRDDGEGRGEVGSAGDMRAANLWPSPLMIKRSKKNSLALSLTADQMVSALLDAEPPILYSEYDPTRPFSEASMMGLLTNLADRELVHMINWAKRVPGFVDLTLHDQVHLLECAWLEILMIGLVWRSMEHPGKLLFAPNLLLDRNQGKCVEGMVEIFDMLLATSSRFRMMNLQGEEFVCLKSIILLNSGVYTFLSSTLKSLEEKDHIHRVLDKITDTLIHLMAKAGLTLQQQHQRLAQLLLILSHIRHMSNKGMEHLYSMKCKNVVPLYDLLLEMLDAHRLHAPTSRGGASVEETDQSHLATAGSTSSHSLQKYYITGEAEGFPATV
- measurement_notes: Degradation of ERα in T-47D cells (immunoblotting, 4 h)
- Type: cell-based
- Design: host or cells: T-47D
- condition_notes: 1nM compound
param class (str): category from Degradation rate (%) of ERα in T-47D cells; see ranges lo (below 20%), mid (20% to below 40%), hi (40% or more)

INSERT INTO measurements (molecule, label_class) VALUES
  ('O=C1CCC(N2Cc3c(ccc4c3OCC43CCN(C[C@H]4CC[C@@H](C#Cc5ccc([C@@H]6c7ccc(O)cc7CC[C@@H]6c6ccccc6)cc5)CC4)CC3)C2=O)C(=O)N1 (stereo partly drawn)', 'lo'),
  ('O=C1CCC(N2Cc3cc4c(cc3C2=O)OC2(CC4)CN(C(=O)C3CCN(c4ccc([C@@H]5c6ccc(O)cc6CC[C@@H]5c5ccccc5)cc4)CC3)C2)C(=O)N1 (stereo partly drawn)', 'lo'),
  ('O=C1CCC(N2Cc3c(ccc4c3OC3(CC4)CCN(C4CC5(CCN(c6ccc([C@@H]7c8ccc(O)cc8CC[C@@H]7c7ccccc7)cc6)CC5)C4)CC3)C2=O)C(=O)N1 (stereo partly drawn)', 'mid'),
  ('C[C@@H]1Cc2c([nH]c3ccccc23)[C@@H](c2c(F)cc(N3CCC(C(=O)N4CCC(N5CCC6(CC5)COc5c6ccc6c5CN(C5CCC(=O)NC5=O)C6=O)[C@H](F)C4)CC3)cc2F)N1CC(F)F (stereo partly drawn)', 'hi'),
  ('O=C1CCC(N2Cc3c(ccc4c3OCC43CCN(C(=O)C(=O)N4CCC5(CCN(c6ccc([C@@H]7c8ccc(O)cc8CC[C@@H]7c7ccccc7)cc6)CC5)C4)CC3)C2=O)C(=O)N1 (stereo partly drawn)', 'hi'),
  ('O=C1CCC(N2Cc3c(ccc4c3OCC43CCN(C(=O)c4ccc(CN5CCN(c6ccc([C@@H]7c8ccc(O)cc8CC[C@@H]7c7ccccc7)cc6)CC5)cn4)CC3)C2=O)C(=O)N1 (stereo partly drawn)', 'hi'),
  ('O=C1CCC(N2Cc3cc4c(cc3C2=O)OC2(CC4)CCN(CC3CCC4(CC3)CCN(c3ccc([C@@H]5c6ccc(O)cc6CC[C@@H]5c5ccccc5)cc3)CC4)CC2)C(=O)N1 (stereo partly drawn)', 'lo'),
  ('O=C1CCC(N2Cc3c(ccc4c3OCC43CCN(C4CC5(CCN(C6CCN(c7ccc([C@@H]8c9ccc(O)cc9CC[C@@H]8c8ccccc8)cc7)CC6)CC5)C4)CC3)C2=O)C(=O)N1 (stereo partly drawn)', 'hi'),
  ('O=C1CCC(N2Cc3c(ccc4c3OC3(CC4)CCN(C4CCN(C5CN(c6ccc([C@@H]7c8ccc(O)cc8CC[C@@H]7c7ccccc7)cc6)C5)CC4)CC3)C2=O)C(=O)N1 (stereo partly drawn)', 'lo'),
  ('O=C1CCC(N2Cc3c(ccc4c3OCC43CCN(CC4CCN(CC5CCN(c6ccc([C@@H]7c8ccc(O)cc8CC[C@@H]7c7ccccc7)cc6)CC5)CC4)CC3)C2=O)C(=O)N1 (stereo partly drawn)', 'lo'),
  ('O=C1CCC(N2Cc3c(ccc4c3OCC43CCN(C4CC5(C4)CN(C4CCN(c6ccc([C@@H]7c8ccc(O)cc8CC[C@@H]7c7ccccc7)cc6)CC4)C5)CC3)C2=O)C(=O)N1 (stereo partly drawn)', 'lo'),
  ('O=C1CCC(N2Cc3cc4c(cc3C2=O)OCC42CCN(C3CCC4(CC3)CN(c3ccc([C@@H]5c6ccc(O)cc6CC[C@@H]5c5ccccc5)cc3)C4)CC2)C(=O)N1 (stereo partly drawn)', 'mid'),
  ('O=C1CCC(N2Cc3c(ccc4c3OCC43CCN(C4CC5(CCC6(CC5)CN(c5ccc([C@@H]7c8ccc(O)cc8CC[C@@H]7c7ccccc7)cc5)C6)C4)CC3)C2=O)C(=O)N1 (stereo partly drawn)', 'lo'),
  ('O=C1CCC(N2Cc3c(ccc4c3OCC43CCN(C4CCN(CC5CCN(c6ccc([C@@H]7c8ccc(O)cc8CC[C@@H]7c7ccccc7)cc6)CC5)C(=O)C4)CC3)C2=O)C(=O)N1 (stereo partly drawn)', 'mid'),
  ('O=C1CCC(N2Cc3c(ccc4c3OCC43CCN(C4CCN(C5CC6(CCN(c7ccc([C@@H]8c9ccc(O)cc9CC[C@@H]8c8ccccc8)cc7)CC6)C5)CC4F)CC3)C2=O)C(=O)N1 (stereo partly drawn)', 'mid'),
  ('C[C@@H]1Cc2cc(O)ccc2C(c2c(F)cc(N3CCC(N4CCC(C(=O)N5CCC6(CC5)COc5c6ccc6c5CN(C5CCC(=O)NC5=O)C6=O)CC4)CC3)cc2F)N1CC(F)F (stereo partly drawn)', 'hi'),
  ('O=C1CCC(N2Cc3c(ccc4c3OCC43CCN(C(=O)[C@H]4CC[C@H](OC5CCN(c6ccc([C@@H]7c8ccc(O)cc8CC[C@@H]7c7ccccc7)cc6)CC5)CC4)CC3)C2=O)C(=O)N1 (stereo partly drawn)', 'mid'),
  ('O=C1CCC(N2Cc3c(ccc4c3OCC43CCN(C(=O)CN4CC5(CCN(c6ccc([C@@H]7c8ccc(O)cc8CC[C@@H]7c7ccccc7)cc6)CC5)C4)CC3)C2=O)C(=O)N1 (stereo partly drawn)', 'hi'),
  ('O=C1CCC(N2Cc3c(ccc4c3OC3(CC4)CCN(C(=O)CN4CCC5(CC4)CCN(c4ccc([C@@H]6c7ccc(O)cc7CC[C@@H]6c6ccccc6)cc4)CC5)CC3)C2=O)C(=O)N1 (stereo partly drawn)', 'lo');
